Tested on: Staphylococcus aureus IAM 1011
procedure summary: Antibacterial activity (MIC), agar plate, Staph. aureus
Assay type: cell-based
condition label: Staph. aureus IAM 1011, Mueller-Hinton agar, 37° C., 18 to 24 hours; unit assumed
quantity name: MIC, Staph. aureus (mg/L)

I: CC1(C)S[C@@H]2[C@H](NC(=O)C(N=Cc3cc([N+](=O)[O-])ccc3O)c3ccccc3)C(=O)N2[C@H]1C(=O)O (stereo partly drawn) [Example 3]
II: CC(=O)OC[C@H]1OC(OC(=O)[C@@H]2N3C(=O)[C@@H](NC(=O)COc4ccccc4)[C@H]3SC2(C)C)[C@H](OC(C)=O)[C@@H](OC(C)=O)[C@@H]1OC(C)=O (stereo partly drawn) [Example 1]
III: COc1cccc(C=NC(C(=O)N[C@@H]2C(=O)N3[C@@H]2SC(C)(C)[C@@H]3C(=O)O)c2ccccc2)c1O (stereo partly drawn) [Example 2]
Prompt: List these items ordered by MIC, Staph. aureus, big to small. Write out the labels following the order that was asked for.
Response: I, II, III
